Test system CSK protein (Homo sapiens (Human), UniProt P41240), pIC50 listed for each of the compounds.
pIC50: −log10 of the molar value.
Measured endpoint: pIC50

• Cc1ccnc(-c2nc(-c3cccc(NS(=O)(=O)c4c(F)cccc4F)c3F)c(-c3ccnc(N)n3)s2)c1 = 7.32
• CNc1nccc(-c2sc(-c3cncnc3)nc2-c2cccc(NS(=O)(=O)c3c(F)ccc(C)c3F)c2F)n1 = 7.83
• CNc1nccc(-c2sc(N3CCCCC3)nc2-c2cccc(NS(=O)(=O)c3c(Cl)cccc3Cl)c2F)n1 = 7.87
• CNc1nccc(-c2sc(N3CCCC3=O)nc2-c2cccc(NS(=O)(=O)c3c(F)cccc3F)c2F)n1 = 7.62
• CNc1nccc(-c2sc(NC)nc2-c2cccc(NS(=O)(=O)c3c(F)cccc3F)c2F)n1 = 7.73
• Nc1nccc(-c2sc(-c3ccccc3)nc2-c2cccc(NS(=O)(=O)c3c(F)cccc3F)c2F)n1 = 7.36
• O=S(=O)(Nc1cccc(-c2nc(-c3ccccc3)sc2-c2ccnc(Nc3cccnc3)n2)c1F)c1c(F)cccc1F = 7.42
• Nc1nccc(-c2sc(-c3cncnc3)nc2-c2cccc(NS(=O)(=O)c3c(F)cccc3F)c2F)n1 = 7.69
• Nc1nccc(-c2sc(-c3ccccc3)nc2-c2cccc(NS(=O)(=O)c3c(F)cccc3F)c2)n1 = 6.84
• CNc1nccc(-c2c(-c3cccc(NS(=O)(=O)c4c(F)ccc(C)c4F)c3F)nc3ccc(F)cn23)n1 = 7.04
• CNC(=O)N[C@@H](C)CNc1nccc(-c2sc(-c3ccccc3)nc2-c2cccc(NS(=O)(=O)c3c(F)cccc3F)c2F)n1 = 7.38
• O=S(=O)(Nc1cccc(-c2nc(-c3ccc(F)cn3)sc2-c2ccnc(NCCO)n2)c1F)c1c(Cl)cccc1Cl = 7.75
• Cc1cc(F)c(S(=O)(=O)Nc2cccc(-c3nc(-c4ccccc4)sc3-c3ccnc(N)n3)c2F)c(F)c1 = 7.09

###

- Assay target: LCK protein (Homo sapiens (Human), UniProt P06239)
- Sequence (P06239 whole entry): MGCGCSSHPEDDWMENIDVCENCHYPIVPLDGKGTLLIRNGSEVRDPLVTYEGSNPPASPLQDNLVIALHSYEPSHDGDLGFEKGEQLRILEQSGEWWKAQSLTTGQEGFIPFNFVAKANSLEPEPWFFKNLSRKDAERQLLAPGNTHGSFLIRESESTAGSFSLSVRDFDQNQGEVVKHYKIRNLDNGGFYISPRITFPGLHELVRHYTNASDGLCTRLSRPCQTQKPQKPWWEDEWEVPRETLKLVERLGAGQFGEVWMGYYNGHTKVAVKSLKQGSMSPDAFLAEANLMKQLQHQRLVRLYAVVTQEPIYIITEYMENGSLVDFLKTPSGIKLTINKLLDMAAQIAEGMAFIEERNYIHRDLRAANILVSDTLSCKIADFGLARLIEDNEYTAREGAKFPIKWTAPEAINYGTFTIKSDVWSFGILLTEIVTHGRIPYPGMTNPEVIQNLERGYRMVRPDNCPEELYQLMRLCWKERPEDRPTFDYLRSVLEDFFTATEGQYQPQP
- Assay method text: LCK Inhibition Assay
- Format: biochemical
pIC50: −log10 of the molar value.
pIC50 values by entry
Measured endpoint: pIC50

- CNc1nccc(-c2sc(-c3cncc(F)c3)nc2-c2cc(Cl)cc(NS(=O)(=O)c3c(F)cccc3F)c2F)n1 [Compound 140]: < 6.00
- Cc1ncc(-c2nc(-c3cccc(NS(=O)(=O)c4c(Cl)ccc(C)c4Cl)c3F)c(-c3ccnc(N)n3)s2)cn1 [Compound 142]: < 6.00
- O=S(=O)(Nc1cccc(-c2nc(N3CCCCC3)sc2-c2ccnc(NC3CC3)n2)c1F)c1c(F)ccc(Cl)c1F [Compound 185]: < 6.00
- Cc1ccc(Cl)c(S(=O)(=O)Nc2cccc(-c3nc(N4CCCCC4)sc3-c3ccnc(NCCO)n3)c2F)c1Cl [Compound 178]: < 6.00
- COc1cc(N2CCOCC2)ccc1Nc1nccc(-c2sc(-c3ccccc3)nc2-c2cccc(NS(=O)(=O)c3c(F)cccc3F)c2F)n1 [Compound 9]: < 6.00
- CNc1nccc(-c2sc(N3CCOCC3)nc2-c2cccc(NS(=O)(=O)c3c(F)cccc3F)c2F)n1 [Compound 116]: 6.00 to 7.00
- O=S(=O)(Nc1cccc(-c2nc(N3CCC3)sc2-c2ccnc(NC3CC3)n2)c1F)c1c(F)ccc(Cl)c1F [Compound 186]: < 6.00
- O=S(=O)(Nc1cccc(-c2nc(-c3ccc(F)cn3)sc2-c2ccnc(NCCO)n2)c1F)c1c(Cl)cccc1Cl [Compound 133]: < 6.00
- Cc1ccc(Cl)c(S(=O)(=O)Nc2cccc(-c3nc(-c4cncc(F)c4)sc3-c3ccnc(NC4CC4)n3)c2F)c1Cl [Compound 139]: < 6.00
- CNc1nccc(-c2sc(N3CCCCC3)nc2-c2cccc(NS(=O)(=O)c3c(F)ccc(C)c3F)c2F)n1 [Compound 161]: < 6.00
- NCCNc1nccc(-c2sc(-c3cncc(F)c3)nc2-c2cccc(NS(=O)(=O)c3c(F)cccc3F)c2F)n1 [Compound 67]: < 6.00
- COC(=O)N[C@H](C)CNc1nccc(-c2sc(-c3ccccc3)nc2-c2cccc(NS(=O)(=O)c3c(F)cccc3F)c2F)n1 [Compound 60]: < 6.00
- CNc1nccc(-c2sc(N(C)CC(F)(F)F)nc2-c2cccc(NS(=O)(=O)c3c(F)cccc3F)c2F)n1 [Compound 181]: 6.00 to 7.00
- Nc1nccc(-c2[nH]c(-c3ccccc3)nc2-c2cccc(NS(=O)(=O)c3c(F)cccc3F)c2F)n1 [Compound 85]: 6.00 to 7.00
